# Tested on: SK-MEL-5 melanoma
# method_notes: NCI-60 one-dose screen, 48 h (100 = growth as untreated, 0 = no growth, -100 = all killed)
# settings: 10 µM unless noted
This is part of a sample that, as a whole, favours compounds with a hit. Of some 83,000 tested, about 20% had one in any assay.
observed_property: growth (%)
I only need the number, in %, no unit after it.

-- ask Item CCC(CC)N1C(=O)/C(=c2\sc3n(c2=O)NC2C(N=3)N(CC)C(=O)N2CC)c2ccccc21 (stereo not drawn) has what recorded growth?
-- reply 55.6

-- ask Try "COc1ccc(NCc2cn(-c3ccc(C(=O)O)cc3)nc2-c2cc(C(F)(F)F)cc(C(F)(F)F)c2)cc1" next.
-- reply 98.8

-- ask Next: "CS(=O)(=O)Nc1cc(-c2ccc3ncc(C#N)c(Nc4cccc(Cl)c4F)c3c2)cnc1Cl"
-- reply -89.9

----------
# Test system: HCT-15 colon
# method_notes: NCI-60 one-dose screen, 48 h (100 = growth as untreated, 0 = no growth, -100 = all killed)
# settings: 10 µM unless noted
About 83,000 compounds went through this panel and 20% of them were active in at least one assay; those are over-represented in the sample as a whole.
observed_property: growth (%)
Just the number please, in %, no unit attached.

Reference set, count: 5
{"columns": ["molecule", "tested_system", "growth / %"],
 "data": [
  ["CC(C)(C)c1ccc(C(=O)Nc2sc3c(c2C(N)=O)CCC(O)C3)cc1 (stereo unspecified)", "HCT-15 colon", 6.55],
  ["Cc1cc(C)c2sc(=O)n(Cc3nnc(SCCC(=O)O)o3)c2n1", "HCT-15 colon", 99.6],
  ["Nn1c(N/N=C/c2nc3ccccc3s2)n[nH]c1=S", "HCT-15 colon", 122],
  ["Cc1ccc(NC(=O)c2ccc(CN3CCN(C)CC3)cc2)cc1Oc1ccc(-c2[nH]nc3ncnc(N)c23)cc1", "HCT-15 colon", 99.4],
  ["NC(N)=Nc1ccc(Oc2cccc(Nc3ccc(Cl)cc3)c2)cn1", "HCT-15 colon", -48.7]
]}

-- ask Fill in the blank: the reported growth of "O=S(=O)(NCCNc1nccc(-n2cnc3ccccc32)n1)c1ccc(Cl)cc1" is ____.
-- reply 96.6

-- ask Next molecule: "CS(=O)(=O)Nc1cc(-c2ccc3ncc(C#N)c(NCc4cccc(F)c4)c3c2)cnc1Cl"
-- reply 5.75

-- ask Also, "Cc1ccc(NC(=S)NNC(=S)Nc2ccc(C)cc2)cc1" please.
-- reply 96.7

-- ask What about this molecule? "COc1ccc(/C=C/C(=O)c2cccc(NC(=O)CSc3nc4ccccc4c(=O)n3-c3ccccc3)c2)cc1OC"
-- reply 89.5

-- ask One more molecule: "CC1=NC2=NC(=O)/C(=C3/N=C(C)C=C(c4ccccc4)N3N)NN2C(c2ccccc2)=C1"
-- reply 107

-- ask Now consider "O=C(NNc1nc2cc(F)cc(F)c2n2cccc12)c1cnccn1" and answer again.
-- reply 24.8

-- ask Try the molecule "O=C(/C=C/c1ccc(F)cc1)c1ccc(O)cc1"
-- reply 73.5

-- ask Same question for "COc1cc(-c2nn(C(C)(C)C)cc2-c2ccnc(NCCCNS(=O)(=O)c3ccc(Cl)cc3)n2)ccc1Cl" please.
-- reply 51.5

-- ask What do we get for "NC(N)=Nc1ccc(Oc2cccc(Nc3ccc(Cl)c(C(F)(F)F)c3)c2)cc1" ?
-- reply 79.5

-- ask Next molecule: "O=C(Nc1ccc(N=Cc2c(O)[nH]c3ccccc23)cc1)Nc1nccs1"
-- reply 29

-- ask Then this molecule: "C#CCOc1ccc(/C=N\Nc2nc(-c3ccc(C)cc3)cs2)cc1OC"
-- reply 86.1

-- ask Moving on to "CC1(C)CC[C@]2(CN)CC[C@]3(C)C(=CC[C@@H]4[C@@]5(C)CCCNC(C)(C)[C@@H]5CC[C@]43C)[C@H]2C1"
-- reply 71.7

-- ask Entry CCC(CC)N1C(=O)/C(=c2\sc3n(c2=O)NC2C(N=3)N(CC)C(=O)N2CC)c2ccccc21 (stereo unspecified) please
-- reply 34.5

-- ask And the next one, "O=C(NNc1nc2cc(F)c(F)cc2n2cccc12)c1cnccn1" ?
-- reply 13.9

-- ask What about "CN(C)CCN(C)c1ccc2ncc(C#Cc3cncc(C(=O)Nc4ccc(CN5CCN(C)CC5)c(C(F)(F)F)c4)c3)n2n1" ?
-- reply -25.2

-- ask Also check O=C(NNc1nc2cc(F)c(F)cc2n2c(CN3CC4CNCC4C3)ccc12)c1ncccn1 (stereo unspecified)
-- reply 19.8
